Entry source: ChEMBL document CHEMBL5038628

Procedure Text: Cmax in Sprague-Dawley rat plasma at 20 mg/kg, IG by LC-MS/MS analysis
Assay type: ADME, organism-based
Parameters: route […], dose 20 mg/kg
Applied Conditions: po
Endpoint: Cmax (ng/mL)
Entry rule: numbers only, all in ng/mL.

Entry "Cc1ccc(NC(=O)c2cc(C(F)(F)F)cnn2)cc1-c1ccc2c(c1)OC1(CCOCC1)CC(=O)N2" has what Cmax?
2810

----------
Target Or Test System: RAF proto-oncogene serine/threonine-protein kinase (Homo sapiens)
Sequence (P04049 whole entry): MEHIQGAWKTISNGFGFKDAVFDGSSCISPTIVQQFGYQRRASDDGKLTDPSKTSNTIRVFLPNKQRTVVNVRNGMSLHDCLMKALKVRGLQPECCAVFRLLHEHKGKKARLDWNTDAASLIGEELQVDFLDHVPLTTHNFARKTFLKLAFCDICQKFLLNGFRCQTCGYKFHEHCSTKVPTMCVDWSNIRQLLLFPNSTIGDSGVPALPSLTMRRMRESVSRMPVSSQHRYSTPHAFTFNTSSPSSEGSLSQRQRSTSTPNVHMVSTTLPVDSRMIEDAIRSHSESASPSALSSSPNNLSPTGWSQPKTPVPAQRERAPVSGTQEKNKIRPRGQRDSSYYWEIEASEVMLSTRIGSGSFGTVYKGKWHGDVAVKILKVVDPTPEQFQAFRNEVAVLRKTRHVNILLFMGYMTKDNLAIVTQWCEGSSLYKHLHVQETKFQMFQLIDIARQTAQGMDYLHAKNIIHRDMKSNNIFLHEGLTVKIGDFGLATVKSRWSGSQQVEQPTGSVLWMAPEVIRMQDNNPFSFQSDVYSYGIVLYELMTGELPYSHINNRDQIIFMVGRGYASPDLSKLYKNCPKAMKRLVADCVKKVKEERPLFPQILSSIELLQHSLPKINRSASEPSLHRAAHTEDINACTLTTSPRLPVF
Procedure Text: Inhibition of human recombinant cRAF measured after 60 mins by TR-FRET assay
A collection of molecules and their measured pIC50
Hey, just a heads up that pIC50 is the negative log base 10 of the concentration in molar.

Take a look at these entries with their results.
1. O=C1CC2(CCOCC2)Oc2cc(-c3cc(NC(=O)c4ccnc(C(F)(F)F)c4)ccc3CO)ccc2N1: 8.46
2. Cc1ccc(C(=O)Nc2ccnc(C(F)(F)F)c2)cc1-c1ccc2c(c1)OC1(CCOCC1)CC(=O)N2: 7.68
3. Cc1ccc(NC(=O)c2ccnc(C(F)(F)F)c2)cc1-c1ccc2c(c1)OC1(CCOCC1)CNC2: 8.37

From here, focus on the item given below.
Sample "Cc1ccc(NC(=O)c2ccnc(C(F)(F)F)c2)cc1-c1ccc2c(c1)OC1(CCOCC1)CCO2" — what was its pIC50?
7.49
